- TGT: Lysophosphatidic acid receptor 5 (Homo sapiens, UniProt Q9H1C0)
- Sequence (Q9H1C0 whole entry): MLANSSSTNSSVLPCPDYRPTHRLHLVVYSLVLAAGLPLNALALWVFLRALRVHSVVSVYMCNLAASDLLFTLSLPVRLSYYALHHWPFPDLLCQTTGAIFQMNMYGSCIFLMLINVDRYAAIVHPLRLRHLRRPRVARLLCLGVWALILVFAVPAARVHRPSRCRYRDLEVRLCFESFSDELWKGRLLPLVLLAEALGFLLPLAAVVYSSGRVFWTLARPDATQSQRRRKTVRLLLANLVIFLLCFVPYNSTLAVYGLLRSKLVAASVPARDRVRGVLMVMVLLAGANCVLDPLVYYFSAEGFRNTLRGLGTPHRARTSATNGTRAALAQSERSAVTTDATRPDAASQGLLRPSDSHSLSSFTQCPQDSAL
- PROTOCOL_NOTES: Antagonist activity at human LPA5 receptor expressed in RH7777 cells assessed as inhibition of EC80 concentration of hexadecyl LPA-induced calcium mobilization incubated for 15 mins by FLIPR method relative to hexadecyl LPA
- Type: functional, cell-based
- CONDITION_CONTEXT: filed as antagonist
This section presents compounds with their documented inhibition values.
Give the quantity in %, number only.

As a guide, the following entries are already answered.
{"CHEM_SMILES": "COc1cc2c(C(=O)N3CCCCC3)cn(-c3cccc(OC(C)C)c3)c(=O)c2cc1OC", "TGT": "Lysophosphatidic acid receptor 5 (Homo sapiens, UniProt Q9H1C0)", "inhibition / %": 100}
{"CHEM_SMILES": "COc1ccc2c(C(=O)N3CCC(F)CC3)cn(-c3cccc(N(C)C)c3)c(=O)c2c1", "TGT": "Lysophosphatidic acid receptor 5 (Homo sapiens, UniProt Q9H1C0)", "inhibition / %": 96}
{"CHEM_SMILES": "CC#CC1CCN(C(=O)c2cn(-c3cccc(N(C)C)c3)c(=O)c3cc(OC)c(OC)cc23)CC1", "TGT": "Lysophosphatidic acid receptor 5 (Homo sapiens, UniProt Q9H1C0)", "inhibition / %": 91}
{"CHEM_SMILES": "CCCCCOc1cc2c(C(=O)N3CCC(F)CC3)cn(-c3cccc(N(C)C)c3)c(=O)c2cc1OC", "TGT": "Lysophosphatidic acid receptor 5 (Homo sapiens, UniProt Q9H1C0)", "inhibition / %": 111}

Now examine the next entry.
Record for "COc1cc2c(=O)n(-c3cccc(N(C)C)c3)cc(C(=O)N3CCC(F)CC3)c2cc1OC(C)C" under target or system Lysophosphatidic acid receptor 5 (Homo sapiens, UniProt Q9H1C0): inhibition reported as 96
